Catalogue of compounds with associated pIC50
# TARGET UNDER TEST: human PDE1B (Homo sapiens (Human), UniProt Q01064)
pIC50: −log10 of the molar value.

| COMPOUND | TARGET UNDER TEST | pIC50 |
| --- | --- | --- |
| O=c1n(Cc2ccc(OC(F)(F)F)cc2)c2sc3c(c2c2ncnn12)CCOC3 | human PDE1B (Homo sapiens (Human), UniProt Q01064) | 5.00 to 6.00 |
| COc1ccc(Cn2c(=O)n3ncnc3c3c(C)csc32)cc1 | human PDE1B (Homo sapiens (Human), UniProt Q01064) | 6.00 to 7.00 |
| COc1ccc(Cn2c(=O)n3ncnc3c3c4c(sc32)CN(C(=O)C2CCN(C)C2)CC4)cc1 (centres unmarked) | human PDE1B (Homo sapiens (Human), UniProt Q01064) | 6.00 to 7.00 |
| O=c1n(Cc2ccc(Cl)cc2)c2sc3c(c2c2ncnn12)CCNC3 | human PDE1B (Homo sapiens (Human), UniProt Q01064) | 5.00 to 6.00 |
| COc1ccc(Cn2c(=O)n3ncnc3c3cc(CCN)cnc32)cc1 | human PDE1B (Homo sapiens (Human), UniProt Q01064) | 5.00 to 6.00 |
| C[C@@H]1CN(Cc2cnc3c(c2)c2ncnn2c(=O)n3Cc2ccc(Cl)c(F)c2)C[C@H](C)O1 | human PDE1B (Homo sapiens (Human), UniProt Q01064) | 6.00 to 7.00 |
| COCCN1CCN(c2cnc3c(c2)c2ncnn2c(=O)n3Cc2ccc(OC)cc2)CC1 | human PDE1B (Homo sapiens (Human), UniProt Q01064) | 6.00 to 7.00 |
| COc1ccc(Cn2c(=O)n3ncnc3c3cc(CN4C[C@@H](C)N[C@@H](C)C4)cnc32)cc1 | human PDE1B (Homo sapiens (Human), UniProt Q01064) | 5.00 to 6.00 |
| COc1ccc(Cn2c(=O)n3ncnc3c3cc(N(C)C4CCOCC4)cnc32)cc1 | human PDE1B (Homo sapiens (Human), UniProt Q01064) | 6.00 to 7.00 |
| CCOc1ccc(Cn2c(=O)n3ncnc3c3cc(CN4C[C@@H](C)O[C@@H](C)C4)cnc32)cc1 | human PDE1B (Homo sapiens (Human), UniProt Q01064) | 6.00 to 7.00 |
| O=c1n(Cc2ccccc2Cl)c2sc(Cc3ccccc3)cc2c2ncnn12 | human PDE1B (Homo sapiens (Human), UniProt Q01064) | 6.00 to 7.00 |
| COc1ccc(Cn2c(=O)n3ncnc3c3ncc(Br)cc32)cc1 | human PDE1B (Homo sapiens (Human), UniProt Q01064) | 5.00 to 6.00 |
| COc1ccc(Cn2c(=O)n3ncnc3c3cc(N4CCN(C5CC5)CC4)cnc32)cc1 | human PDE1B (Homo sapiens (Human), UniProt Q01064) | 6.00 to 7.00 |
| COc1ccc(Cn2c(=O)n3ncnc3c3ccc(CNCc4ccccc4)nc32)cc1 | human PDE1B (Homo sapiens (Human), UniProt Q01064) | 6.00 to 7.00 |
| COc1ccc(Cn2c(=O)n3ncnc3c3c(C)c(Br)sc32)cc1 | human PDE1B (Homo sapiens (Human), UniProt Q01064) | 6.00 to 7.00 |
| COc1ccc(Cn2c(=O)n3ncnc3c3cc(CN4C[C@@H](C)O[C@@H](C)C4)cnc32)cc1F | human PDE1B (Homo sapiens (Human), UniProt Q01064) | 6.00 to 7.00 |
| COc1ccc(Cn2c(=O)n3ncnc3c3cc(CN4CCCN(C(C)=O)CC4)cnc32)cc1 | human PDE1B (Homo sapiens (Human), UniProt Q01064) | 6.00 to 7.00 |
